Assay target: binding between p34 protein and NEDD4-1 protein (Homo sapiens, UniProt P46934+Q9UHV2)
Construct: FLAG or 6xHis (known only from the detection antibodies)
Sequence (P46934 1-1319): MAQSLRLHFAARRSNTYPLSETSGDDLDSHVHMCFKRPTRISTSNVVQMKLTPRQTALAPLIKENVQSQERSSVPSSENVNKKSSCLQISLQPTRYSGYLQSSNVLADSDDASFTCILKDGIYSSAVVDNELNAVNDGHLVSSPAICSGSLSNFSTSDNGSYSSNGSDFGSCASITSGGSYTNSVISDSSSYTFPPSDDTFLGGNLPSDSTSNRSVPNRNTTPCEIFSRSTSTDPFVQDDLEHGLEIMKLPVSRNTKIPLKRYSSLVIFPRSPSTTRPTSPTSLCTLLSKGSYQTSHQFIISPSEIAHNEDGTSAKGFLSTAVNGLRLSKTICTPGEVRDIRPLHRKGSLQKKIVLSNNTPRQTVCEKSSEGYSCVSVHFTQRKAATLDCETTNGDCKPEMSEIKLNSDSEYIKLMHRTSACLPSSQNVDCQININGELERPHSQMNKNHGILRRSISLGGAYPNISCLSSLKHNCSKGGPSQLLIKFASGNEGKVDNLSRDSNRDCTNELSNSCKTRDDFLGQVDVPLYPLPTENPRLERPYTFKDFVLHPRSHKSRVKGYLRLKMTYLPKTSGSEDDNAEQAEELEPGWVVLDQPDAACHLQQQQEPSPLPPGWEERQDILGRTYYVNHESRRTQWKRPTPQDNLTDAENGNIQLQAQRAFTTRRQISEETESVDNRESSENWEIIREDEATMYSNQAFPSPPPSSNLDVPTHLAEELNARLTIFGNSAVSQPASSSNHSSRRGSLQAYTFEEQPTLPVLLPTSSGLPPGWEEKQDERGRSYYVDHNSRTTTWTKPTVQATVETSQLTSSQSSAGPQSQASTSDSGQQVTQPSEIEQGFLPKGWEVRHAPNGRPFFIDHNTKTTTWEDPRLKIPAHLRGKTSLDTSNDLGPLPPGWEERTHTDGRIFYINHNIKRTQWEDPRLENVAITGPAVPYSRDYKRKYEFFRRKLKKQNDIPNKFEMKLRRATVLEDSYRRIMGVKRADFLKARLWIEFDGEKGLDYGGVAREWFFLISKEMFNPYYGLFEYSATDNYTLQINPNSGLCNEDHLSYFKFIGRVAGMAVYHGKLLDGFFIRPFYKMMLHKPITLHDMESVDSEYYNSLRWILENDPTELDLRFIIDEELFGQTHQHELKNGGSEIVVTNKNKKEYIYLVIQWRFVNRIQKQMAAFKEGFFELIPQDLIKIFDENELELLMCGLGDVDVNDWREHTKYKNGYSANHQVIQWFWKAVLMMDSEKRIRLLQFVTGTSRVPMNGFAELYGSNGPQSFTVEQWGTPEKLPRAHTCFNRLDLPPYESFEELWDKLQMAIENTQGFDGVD
Sequence (Q9UHV2 1-236): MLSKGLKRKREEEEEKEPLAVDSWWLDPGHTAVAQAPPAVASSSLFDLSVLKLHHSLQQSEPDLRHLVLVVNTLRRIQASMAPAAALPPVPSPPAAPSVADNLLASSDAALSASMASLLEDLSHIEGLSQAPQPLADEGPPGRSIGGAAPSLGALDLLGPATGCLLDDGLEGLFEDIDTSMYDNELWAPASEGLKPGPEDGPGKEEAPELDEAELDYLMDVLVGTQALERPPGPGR
Test summary: Inhibitory activity on binding between p34 and NEDD4-1, FRET (HTRF) assay
Conditions used: pH 7.4, compound 10 μM; 1×PBS pH 7.4, 0.1% BSA, 2% DMSO; 384-well
Label scheme for inhibition at 10 µM: c1 = under 40%, c2 = from 40% up to 50%, c3 = 50% and over

Previously resolved entries follow.
CC(NC(=O)C1CCN(Cc2c[nH]c3ccc(C(F)(F)F)cc23)CC1)c1nc2ccccc2[nH]1 (centres unmarked) [Example 34]	c3
O=C(NCc1nc2ccc(F)cc2[nH]1)C1CCN(Cc2ccc3[nH]ccc3c2)CC1 [Example 14]	c2
O=C(NCc1cncs1)N1CCN(Cc2n[nH]c3ccccc23)CC1 [Example 83]	c2
O=C(NCc1nccs1)N1CCN(Cc2ccc3cc[nH]c3c2)CC1 [Example 82]	c2
Cc1[nH]c2ccc(CN3CCN(C(=O)NCc4cncs4)CC3)cc2c1C [Example 89]	c1
O=C(NCc1nc2ccccc2[nH]1)C1CCN(Cc2c[nH]c3ccccc23)CC1 [Example 61]	c3
O=C(NCc1nc2ccccc2o1)C1CCN(Cc2ccc3[nH]ccc3c2)CC1 [Example 18]	c1
Cc1ccc2nc(C(C)NC(=O)C3CCN(Cc4c[nH]c5ccccc45)CC3)[nH]c2c1 (centres unmarked) [Example 56]	c3
CC(NC(=O)N1CCN(Cc2c[nH]c3ccc(Cl)cc23)CC1)c1nc2ccccc2[nH]1 (centres unmarked) [Example 65]	c3
CCC(NC(=O)C1CCN(Cc2ccc3[nH]ccc3c2)CC1)c1nc2ccccc2[nH]1 (centres unmarked) [Example 24]	c3

Exam item: Lab note: which band did O=C(NCc1nc2cc(F)ccc2[nH]1)C1CCN(Cc2c[nH]c3ccc(Cl)cc23)CC1 [Example 6] land in?
Marked response: c1

Exam item: Could you do the same for O=C(NC(Cc1ccccc1)c1nc2ccccc2[nH]1)C1CCN(Cc2c[nH]c3ccc(C(F)(F)F)cc23)CC1 (centres unmarked) [Example 33] , please?
Marked response: c2

Exam item: Also need O=C(NCc1nccs1)N1CCN(Cc2n[nH]c3ccccc23)CC1 [Example 79] , thanks.
Marked response: c3

Exam item: Next record, please: O=C(Nc1ncccn1)N1CCN(Cc2ccc3[nH]ccc3c2)CC1 [Example 73]
Marked response: c3

Exam item: Moving on to the next molecule: O=C(NCc1cncs1)N1CCN(Cc2c[nH]c3ccc(Cl)cc23)CC1 [Example 85]
Marked response: c2

Exam item: What about this molecule? Cn1cc(CN2CCC(C(=O)NCc3nc4ccccc4[nH]3)CC2)c2cc(F)ccc21 [Example 51]
Marked response: c3

Exam item: Now this one: O=C(Nc1ccccc1)N1CCN(Cc2ccc3[nH]ccc3c2)CC1 [Example 77]
Marked response: c1

Exam item: // same read-out, input: O=C(Nc1ccccn1)N1CCN(Cc2ccc3[nH]ccc3c2)CC1 [Example 72]
Marked response: c3

Exam item: Now the molecule Cn1c(CNC(=O)C2CCN(Cc3c[nH]c4ccc(C(F)(F)F)cc34)CC2)nc2ccccc21 [Example 40]
Marked response: c2

Exam item: Next molecule: O=C(NCc1ncc[nH]1)C1CCN(Cc2ccc3[nH]ccc3c2)CC1 [Example 15]
Marked response: c3

Exam item: And then O=C(NCc1cncs1)N1CCN(Cc2c[nH]c3ccc(F)cc23)CC1 [Example 86] , what is it?
Marked response: c2

Exam item: Try this molecule next: O=C(NCc1nc2ccccc2o1)C1CCN(Cc2c[nH]c3ccc(C(F)(F)F)cc23)CC1 [Example 32]
Marked response: c3

Exam item: Next: O=C(NCc1cnccn1)C1CCN(Cc2ccc3[nH]ccc3c2)CC1 [Example 26]
Marked response: c2
